Origin of the recorded values: PubChem BioAssay (Tox21)

- assay: qHTS assay to identify small molecule agonists of the estrogen related receptor (ERR) signaling pathway from Tox21 library (AID 1224849); also: % is scaled to controls: 0 for no effect and ±100 for the full control effect; nearly all actives have a fitted effect of over 15% in size
- setup_conditions: ERR reporter cell line, ONE-Glo luciferase, 18 h; at 92.4 µM (top of the series) unless noted
- Description: National Center for Advancing Translational Sciences [NCATS] NIH Chemical Genomics Center [NCGC] U.S. Environmental Protection Agency [EPA] National Institutes of Environmental Health Sciences [NIEHS] National Toxicology Program [NTP] […] The ERR cells were dispensed at 2,000 cells/5 ul/well in 1536-well white plates using a Multidrop dispenser. […] After 30-minute incubation at room temperature, the luminescence intensity in the plates was measured using a ViewLux plate reader.
Calls of active or inactive are those of the source. Calls follow the shape of the full dose curve.
parameter: activity change, positive = activation

ClC(Br)Br	1.41% (inactive)
CCCCOC(=O)[C@@H](C)Oc1ccc(Oc2ccc(C#N)cc2F)cc1	-5.11% (inactive)
N#Cc1ccncc1	5.77% (inactive)

Continue with the next compound.
Data point: `CC1=NNC(=O)N(/N=C/c2cccnc2)C1` ; activity change, positive = activation = -0.152% (inactive)
